Data origin, for the record: patent US10975056B2

IC50: recorded values
molecular target: DNMT1 (Homo sapiens, UniProt P26358); assay: DNMT1 biochemical activity, breaklight assay and/or SPA assay; settings: binned activity in either the breaklight or the SPA assay; read-out: DNMT1 BioChemical (pIC50 category) (converted)
Sequence (P26358 whole entry, looked up): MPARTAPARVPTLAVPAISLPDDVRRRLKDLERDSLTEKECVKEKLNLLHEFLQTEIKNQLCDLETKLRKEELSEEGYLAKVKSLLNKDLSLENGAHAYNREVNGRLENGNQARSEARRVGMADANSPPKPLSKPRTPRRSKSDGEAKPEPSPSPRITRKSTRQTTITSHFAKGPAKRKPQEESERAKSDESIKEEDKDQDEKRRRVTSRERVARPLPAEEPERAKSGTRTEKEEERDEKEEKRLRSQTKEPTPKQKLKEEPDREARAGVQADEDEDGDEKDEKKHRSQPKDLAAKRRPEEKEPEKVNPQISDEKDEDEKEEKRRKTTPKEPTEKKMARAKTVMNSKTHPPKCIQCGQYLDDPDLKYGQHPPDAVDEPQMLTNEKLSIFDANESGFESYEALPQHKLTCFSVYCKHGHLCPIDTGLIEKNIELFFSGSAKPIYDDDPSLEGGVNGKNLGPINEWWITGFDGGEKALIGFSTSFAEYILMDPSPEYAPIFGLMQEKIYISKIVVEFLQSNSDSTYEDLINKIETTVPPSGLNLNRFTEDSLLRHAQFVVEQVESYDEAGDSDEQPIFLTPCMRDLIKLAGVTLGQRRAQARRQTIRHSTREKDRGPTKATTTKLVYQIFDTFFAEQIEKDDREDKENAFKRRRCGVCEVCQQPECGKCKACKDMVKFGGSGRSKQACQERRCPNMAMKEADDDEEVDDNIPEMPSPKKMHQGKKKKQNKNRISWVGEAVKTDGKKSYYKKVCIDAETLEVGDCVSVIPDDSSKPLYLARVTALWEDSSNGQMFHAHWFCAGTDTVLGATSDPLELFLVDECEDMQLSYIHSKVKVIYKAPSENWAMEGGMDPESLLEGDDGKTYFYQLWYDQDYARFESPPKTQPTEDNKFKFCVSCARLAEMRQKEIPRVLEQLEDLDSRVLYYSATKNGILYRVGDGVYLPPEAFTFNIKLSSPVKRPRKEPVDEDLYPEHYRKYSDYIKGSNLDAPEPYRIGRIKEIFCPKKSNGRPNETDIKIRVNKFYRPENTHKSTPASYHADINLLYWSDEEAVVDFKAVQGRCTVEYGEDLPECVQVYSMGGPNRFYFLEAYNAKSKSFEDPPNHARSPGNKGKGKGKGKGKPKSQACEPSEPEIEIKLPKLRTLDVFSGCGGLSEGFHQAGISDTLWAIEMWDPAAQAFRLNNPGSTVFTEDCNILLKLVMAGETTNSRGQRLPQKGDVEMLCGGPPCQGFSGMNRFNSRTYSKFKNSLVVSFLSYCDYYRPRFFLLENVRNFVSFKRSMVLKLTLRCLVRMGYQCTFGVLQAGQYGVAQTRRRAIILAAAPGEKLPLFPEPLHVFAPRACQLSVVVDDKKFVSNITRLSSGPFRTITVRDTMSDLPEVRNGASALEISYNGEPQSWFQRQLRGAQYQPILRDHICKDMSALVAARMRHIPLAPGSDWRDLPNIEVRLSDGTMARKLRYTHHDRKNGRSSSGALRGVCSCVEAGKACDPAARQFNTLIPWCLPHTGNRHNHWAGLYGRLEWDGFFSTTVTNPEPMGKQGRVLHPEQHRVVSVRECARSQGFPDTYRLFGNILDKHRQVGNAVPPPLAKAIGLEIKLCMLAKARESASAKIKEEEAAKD

Example results:
molecule="CCc1c(C#N)c(SC(C(N)=O)c2ccccc2)nc(N2CCCC(CN(C)C)C2)c1C#N (stereo not shown)" endpoint_value="< 0.316 µM"
molecule=CCc1c(C#N)c(SCc2ccc(CNC(=O)CC(C)C)cc2)nc(N2CCCN(C)CC2)c1C#N endpoint_value="0.316 to 1 µM"
molecule=CCc1c(C#N)c(SCc2ccc(N(C)S(=O)(=O)C(F)F)cc2)nc(N2CCCN(C)CC2)c1C#N endpoint_value="0.316 to 1 µM"

Okay, now this molecule:
Specify IC50 for N#Cc1c(N2CCCNCC2)nc(SC(C(N)=O)c2ccccc2)c2c1CCC2 (stereo not shown) and stop.
0.316 to 1 µM

====

target: UniProtKB P26358; experiment: DNMT1 biochemical activity, breaklight assay and/or SPA assay; details: binned activity in either the breaklight or the SPA assay
value-kind: DNMT1 BioChemical (pIC50 category)

Example entries begin here.
compound="CCc1c(C#N)c(SC(C(N)=O)c2ccccc2)nc(N(C)CC(=O)NCCO)c1C#N (centres unmarked)" tested_on="UniProtKB P26358" value_kind="DNMT1 BioChemical (pIC50 category)" endpoint_value="D (Category D: ≥6.5)"
compound=CCc1c(C#N)c(SCc2ccc(S(=O)(=O)NC)cc2)nc(N2CCCN(C)CC2)c1C#N tested_on="UniProtKB P26358" value_kind="DNMT1 BioChemical (pIC50 category)" endpoint_value="D (Category D: ≥6.5)"
compound="CCc1c(C#N)c(SC(C(N)=O)c2ccccc2)nc(N2CCC(N(C)CC(C)(C)C)CC2)c1C#N (centres unmarked)" tested_on="UniProtKB P26358" value_kind="DNMT1 BioChemical (pIC50 category)" endpoint_value="D (Category D: ≥6.5)"
compound=CCc1c(C#N)c(SCc2ccc(N(C)S(C)(=O)=O)cc2)nc(N(C)CCNC2(C)CC2)c1C#N tested_on="UniProtKB P26358" value_kind="DNMT1 BioChemical (pIC50 category)" endpoint_value="D (Category D: ≥6.5)"
compound="C[C@@H](N)C(=O)NC1CCN(c2nc(SC(C(N)=O)c3ccccc3)c(C#N)c(C3CC3)c2C#N)CC1 (some centres unmarked)" tested_on="UniProtKB P26358" value_kind="DNMT1 BioChemical (pIC50 category)" endpoint_value="D (Category D: ≥6.5)"

Using the record for CCc1c(C#N)c(SC(C(N)=O)c2ccccc2)nc(N(C)Cc2cc[nH]n2)c1C#N (centres unmarked) , state its measured DNMT1 BioChemical (pIC50 category).
D (Category D: ≥6.5)

Report DNMT1 BioChemical (pIC50 category) for CCc1c(C#N)c(SCc2ccc(N(C)S(C)(=O)=O)cc2)nc(N(C)CCN2CCCCC2)c1C#N
D (Category D: ≥6.5)

Supply recorded DNMT1 BioChemical (pIC50 category) for CCc1c(C#N)c(SCc2ccc(CNC(C)=O)cc2)nc(N2CCCN(C)CC2)c1C#N here.
D (Category D: ≥6.5)

====

system: erythroid progenitor cells (EPCs); test: Fetal hemoglobin (HbF) ELISA in day 7 erythroid progenitor cells; assay type: cell-based, human; settings: Homo sapiens, Erythroid progenitor cell, HbF ELISA, day 7 EPCs, 5 days; read-out: EPC ELISA (pEC50 category) (converted);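 also: for fetal hemoglobin induction normalized to vehicle-treated cells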
Structures can show the parent of a compound that is named as a salt.
value-kind: EC50

Examples with their reported EC50 follow.
molecule="CCc1c(C#N)c(SC(C(N)=O)c2ccccc2)nc(N2CC[C@H](N)C2)c1C#N (stereo partly drawn) [Example 528]" tested_on="erythroid progenitor cells (EPCs)" value_kind=EC50 endpoint_value="< 316 nM"
molecule="CCc1c(C#N)c(SCc2ccc(N(C)S(C)(=O)=O)cc2)nc(N2CCC(NC(=O)CN)CC2)c1C#N [Example 590]" tested_on="erythroid progenitor cells (EPCs)" value_kind=EC50 endpoint_value="1000 to 31600 nM"
molecule="CCc1c(C#N)c(SCc2ccc(N(C)S(C)(=O)=O)cc2)nc(N2CCC(NC(=O)[C@@H](C)N)CC2)c1C#N [Example 584]" tested_on="erythroid progenitor cells (EPCs)" value_kind=EC50 endpoint_value="< 316 nM"
molecule="CCc1c(Cl)c(SC(C(N)=O)c2ccccc2)nc(N2CCCN(CCO)CC2)c1Cl (stereo not drawn) [Example 203]" tested_on="erythroid progenitor cells (EPCs)" value_kind=EC50 endpoint_value="> 31600 nM"
molecule="CCc1c(C#N)c(SC(C(N)=O)C2CCNCC2)nc(N(C)C)c1C#N (stereo not drawn) [Example 157]" tested_on="erythroid progenitor cells (EPCs)" value_kind=EC50 endpoint_value="1000 to 31600 nM"

Fill in reported EC50 for this entry: CCc1c(C#N)c(SC(C(N)=O)c2ccccc2)nc(N2CCC(O)C2)c1C#N (stereo not drawn) [Example 370]
1000 to 31600 nM

Determine its reported EC50: CCc1c(C#N)c(SC(C(N)=O)c2ccccc2)nc(N2CC(ONC(=N)N)C2)c1C#N (stereo not drawn) [Example 676]
1000 to 31600 nM

Return reported EC50. Input molecule: CCc1c(C#N)c(SCc2ccc(N(C)S(=O)(=O)C(F)F)cc2)nc(N2CCCN(C)CC2)c1C#N [Example 602]
< 316 nM

Supply EC50 value. Item: CCc1c(C#N)c(SC(C(N)=O)c2ccccc2)nc(N2CC(COC(=O)[C@@H](N)C(C)C)C2)c1C#N (stereo partly drawn) [Example 277, TFA Salt]
1000 to 31600 nM

Fill in EC50 for record CCc1c(C#N)c(SC(C(N)=O)c2ccc(F)cn2)nc(N2CCC(N3CCCC3)CC2)c1C#N (stereo not drawn) [Example 211, Formic Acid Salt]
< 316 nM

Please report the measured EC50 for CCc1c(C#N)c(SC(C(N)=O)c2ccccc2)nc(N(C)CC(=O)N2CC[C@H](CO)C2)c1C#N (stereo partly drawn) [Example 648]
< 316 nM

Return EC50 for the following molecule: N#Cc1c(SC(C(N)=O)c2ccccc2)nc(N2CCCC(O)C2)c(C#N)c1C1CC1 (stereo not drawn) [Example 164]
316 to 1000 nM

Answer with reported EC50 of CCc1c(C#N)c(S[C@H](C(N)=O)c2ccccc2)nc(N2C[C@H](O)CO2)c1C#N (single isomer, unassigned) [Example 694]
1000 to 31600 nM

Name the recorded EC50 of the item CCc1c(C#N)c(SC(C(N)=O)c2ccccc2)nc(N2CCO[C@@H](CNCC(C)(C)C)C2)c1C#N (stereo partly drawn) [Example 567] in your answer.
< 316 nM

Quickly give me recorded EC50 for CCc1c(C#N)c(SCc2ccc(CNC(=O)CC(C)C)cc2)nc(N2CCCN(C)CC2)c1C#N [Example 89]
> 31600 nM

====

Measured EC50, listed per entry for reference.
test system: erythroid progenitor cells (EPCs); assay: Fetal hemoglobin (HbF) ELISA in day 7 erythroid progenitor cells; assay type: cell-based, human; settings: Homo sapiens, Erythroid progenitor cell, HbF ELISA, day 7 EPCs, 5 days; read-out: EPC ELISA (pEC50 category) (converted);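 also: for fetal hemoglobin induction normalized to vehicle-treated cells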
Structures can show the parent of a compound that is named as a salt.

Please review the entries below; each comes with its answer.
compound="CCc1c(C#N)c(SC(C(N)=O)c2ccccc2)nc(N(C)CC(=O)N2CC[C@@H](O)C2)c1C#N (stereo partly shown) [Example 613]" value_kind=EC50 endpoint_value="< 0.316 µM"
compound="CCc1c(C#N)c(SC(C(N)=O)c2ccccc2)nc(N(C)CC(=O)NCCN)c1C#N (stereo not shown) [Example 630, hydrochloride]" value_kind=EC50 endpoint_value="< 0.316 µM"
compound="CCc1c(C#N)c(SC(C(N)=O)c2ccccc2)nc(N(C)CCN2CC[C@H](N)C2)c1C#N (stereo partly shown) [Example 535]" value_kind=EC50 endpoint_value="0.316 to 1 µM"

Would you please give the reported EC50 of N#Cc1c(SC(C(N)=O)c2ccccc2)nc(N2CCC(N)CC2)c(C#N)c1C1CC1 (stereo not shown) [Example 28] with erythroid progenitor cells (EPCs)?
< 0.316 µM

Given CCc1c(C#N)c(SC(C(N)=O)c2ccccc2)nc(N(C)CCN2[C@@H](C)CC[C@@H]2C)c1C#N (stereo partly shown) [Example 490] , report its EC50 on erythroid progenitor cells (EPCs).
0.316 to 1 µM

Using erythroid progenitor cells (EPCs) as the test system, report measured EC50 of CCc1c(C#N)c(SC(C(N)=O)c2ccccc2)nc(N(C)CC(=O)N2C[C@H](O)[C@@H](O)C2)c1C#N (stereo partly shown) [Example 660] .
1 to 31.6 µM

Report value: EC50, system: erythroid progenitor cells (EPCs), compound: CCc1c(C#N)c(SCc2ccc3[nH]cnc3c2)nc(N2CCCN(C)CC2)c1C#N [Example 390]
0.316 to 1 µM
